Each recorded value in this set is attributed to the supplement of paper PMC10567573.

B1: CCDC89 (parent)
chain: LNAELEEKMMQEAEKLKAQGEYSR

variants of: B1; assay: protein stability index of a GFP-peptide fusion (GPS, HEK-293T) (PSI 1-6); higher = more stable; conditions: c terminus: a fixed tail appended;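 also: lentivirally expressed fusions sorted by FACS into six bins by GFP to DsRed ratio, PSI derived from sequencing read proportions per bin multiplied by bin number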
observable: protein stability index

- E4R: 4.57
- R24V: 5.64
- E4S: 5.16
- E7I: 4.64
- L1I: 4.69
- Q11Y: 4.86
- A13F: 4.49
- L1D: 5.54
- A3T: 5.63
- N2P: 4.82
- M9I: 5.12
- S23C: 4.73
- E21R: 4.98
- A3E: 4.45
- E4I: 4.6
- R24N: 5.03
- N2H: 5.42
- M10Y: 5.15
- E12A: 4.42
- E6P: 4.8
- E21L: 4.16
- E21G: 4.17
- N2F: 4.17
- E21V: 4.58
- A18M: 4.71
- S23L: 5.2
- L5D: 4.71
- M10S: 5.65
- G20E: 4.82
- E6N: 4.71
- G20N: 4.99
- A13Y: 5.28
- L1P: 5.4
- A3S: 4.96
- E7R: 3.8
- A13C: 4.94
- E21W: 3.76
- K17Q: 5.22
- A3N: 3.89
- A18R: 4.31
- L16C: 5.36
- Q11D: 5.7
- E12Y: 3.47
- K15C: 5.03
- G20K: 5.22
- G20H: 4.35
